Literature compilation of pKi measurements on D(3) dopamine receptor (Rattus norvegicus, UniProt P19020).
Sequence (P19020 whole entry): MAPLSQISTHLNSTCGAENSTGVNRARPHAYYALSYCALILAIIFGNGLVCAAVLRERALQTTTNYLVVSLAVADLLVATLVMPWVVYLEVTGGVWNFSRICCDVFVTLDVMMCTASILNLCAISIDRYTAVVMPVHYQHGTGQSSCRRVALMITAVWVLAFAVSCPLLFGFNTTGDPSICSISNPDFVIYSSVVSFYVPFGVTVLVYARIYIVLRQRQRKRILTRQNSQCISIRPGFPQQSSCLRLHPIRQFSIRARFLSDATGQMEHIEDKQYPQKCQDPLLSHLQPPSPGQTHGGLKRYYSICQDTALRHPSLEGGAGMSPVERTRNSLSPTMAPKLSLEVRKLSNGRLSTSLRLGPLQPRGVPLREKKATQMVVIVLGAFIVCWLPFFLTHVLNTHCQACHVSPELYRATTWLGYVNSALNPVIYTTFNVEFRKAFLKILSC
pKi: −log10 of the molar value.
Binary classification by pKi, with 8 as an inclusive lower bound for 1; all other cases are 0.

Inquiry: Determine whether this molecule has pKi no lower than 8: CCCN(CCN1CCN(c2ccccc2OC)CC1)C1CCc2cc3[nH]cnc3cc2C1 (stereo not given)
Reply text: 0

Inquiry: Decide: is the reported value of pKi for O=C(NCCCCN1CCN2c3ccccc3CCC2C1)c1ccc2ccccc2c1 (stereo not given) equal to or greater than 8?
Reply text: 0

Inquiry: pKi >= 8 for CCCN(CCCCCc1ccc(O)c(OC)c1)C1CCc2nc(N)sc2C1 (racemic) ?
Reply text: 1

Inquiry: Item Cn1c(SCCCN2CCOC(c3ccc(C(F)(F)F)cc3)C2)nnc1-c1cccnc1 (racemic) with pKi of 8 or above?
Reply text: 0
